assay: chemical genetic growth profiling, strain panel (AID 1159580);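 also: tested at 20 µM; growth read once vehicle control cultures reached saturation at 30 °C; 1 = growth at the plate median or of vehicle wells; lower values mean less growth of the strain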; settings: S. cerevisiae deletion strains, growth OD, locus YMR223W, strain ubp8, active compounds read low
The whole screen tested about 5,500 compounds, of which about 2,000 (36%) were called active. Roughly 18% stayed inconclusive and do not appear here. The list shows a part of the results.
Attribute: normalized growth

// known answers, use as guide
{"COMPOUND": "CCOC(=O)c1ccc(N)cc1", "normalized growth": "0.997 (inactive)"}
{"COMPOUND": "COc1cc(O)cc(/C=C/c2ccccc2)c1", "normalized growth": "0.805 (active)"}
{"COMPOUND": "OC/C=C/c1ccc(O)c(O)c1", "normalized growth": "0.98 (inactive)"}
{"COMPOUND": "COc1ccccc1-c1cc(=O)c2cccc(OC)c2o1", "normalized growth": "0.886 (active)"}
{"COMPOUND": "C#C[C@]1(O)CCC2C3CCc4cc(O)ccc4C3CC[C@@]21C (stereo partly drawn)", "normalized growth": "0.948 (inactive)"}
{"COMPOUND": "COc1ccccc1-c1cc(=O)c2c(OC)cccc2o1", "normalized growth": "0.916 (inactive)"}
{"COMPOUND": "Oc1ccc(/C=C/c2cc(O)cc(O)c2)cc1", "normalized growth": "0.923 (inactive)"}
{"COMPOUND": "CCN(CC)CCOC(=O)C(Cc1cccc2ccccc12)CC1CCCO1 (stereo not drawn)", "normalized growth": "1.02 (inactive)"}
{"COMPOUND": "COc1c(C(=O)O)ccc2c1CCC(C)(C)O2", "normalized growth": "1 (inactive)"}
{"COMPOUND": "COc1c(C2COc3cc4c(cc3C2=O)CC(O)C(C)(C)O4)ccc2c1CCC(C)(C)O2 (stereo not drawn)", "normalized growth": "1.02 (inactive)"}

Query: Any idea what its normalized growth is? The compound is "COc1ccc(/C=C/c2cc(O)cc(O)c2)cc1"
Result: 0.89 (active)

Query: Which normalized growth reading was recorded for the compound "C/C=C/c1ccc(OC)cc1" ?
Result: 1.01 (inactive)

Query: Form field: reported normalized growth of "NCCCCN=C(N)N"
Result: 1 (inactive)
